System: NCI-H1437
method_summary: relative viability (nuclei count vs DMSO), 5 days (fraction); higher = more cells survive
measurement_parameters: first compound 0.006325 µM
parameter: relative viability
Could you respond with only the numeric value?

Prompt: Recorded relative viability of CC(=O)O[C@@]12CO[C@@H]1C[C@H](O)[C@@]1(C)C(=O)[C@H](O)C3=C(C)[C@@H](OC(=O)[C@H](O)[C@@H](NC(=O)OC(C)(C)C)c4ccccc4)C[C@@](O)([C@@H](OC(=O)c4ccccc4)[C@H]21)C3(C)C [Docetaxel] + CS(=O)(=O)N1CCN(Cc2cc3nc(-c4cccc5[nH]ncc45)nc(N4CCOCC4)c3s2)CC1 [Pictilisib] (partner 1 µM) , please.
Completion: 0.117

* * *

Here, each record is paired with measured relative viability data.
Test system: ABC-1
method_summary: relative viability (nuclei count vs DMSO), 5 days (fraction); higher = more cells survive
measurement_parameters: first compound 0.05 µM
Could you respond with only the numeric value?

{"compound": "Nc1ccn([C@@H]2O[C@H](CO)[C@@H](O)[C@@H]2O)c(=O)n1 [Cytarabine] + Nc1ncn([C@H]2C[C@H](O)[C@@H](CO)O2)c(=O)n1 [Decitabine] (partner 2 µM)", "relative viability": 0.925}
{"compound": "COc1cc2nccc(Oc3ccc(NC(=O)Nc4cc(C)on4)c(Cl)c3)c2cc1OC [Tivozanib] + Cc1nc(Nc2ncc(C(=O)Nc3c(C)cccc3Cl)s2)cc(N2CCN(CCO)CC2)n1 [Dasatinib] (partner 0.075 µM)", "relative viability": 0.729}

Proceed to the following item.
Prompt: Please provide the recorded relative viability for COc1cc2nccc(Oc3ccc(NC(=O)Nc4cc(C)on4)c(Cl)c3)c2cc1OC [Tivozanib] + CC(=O)c1c(C)c2cnc(Nc3ccc(N4CCNCC4)cn3)nc2n(C2CCCC2)c1=O [Palbociclib] (partner 0.5 µM) , tested on ABC-1.
Completion: 0.562

* * *

Tested on: SW 1573
method_summary: relative viability (nuclei count vs DMSO), 5 days (fraction); higher = more cells survive
measurement_parameters: first compound 0.8 µM
Here, each record is paired with measured relative viability data.
Could you respond with only the numeric value?

Previously resolved entries follow.
{"compound": "Cc1cnc(-c2cnc(NCCNc3ccc(C#N)cn3)nc2-c2ccc(Cl)cc2Cl)[nH]1 + C[C@]1(O)C[C@@H](c2nc(-c3ccc4ccc(-c5ccccc5)nc4c3)c3c(N)nccn32)C1 [Linsitinib] (partner 1 µM)", "relative viability": 0.845}
{"compound": "O=c1[nH]c2ccccc2n1C1CCN(CCCC(c2ccc(F)cc2)c2ccc(F)cc2)CC1 [Pimozide] + CS(=O)(=O)N1CCN(Cc2cc3nc(-c4cccc5[nH]ncc45)nc(N4CCOCC4)c3s2)CC1 [Pictilisib] (partner 1 µM)", "relative viability": 0.47}
{"compound": "Cc1cnc(-c2cnc(NCCNc3ccc(C#N)cn3)nc2-c2ccc(Cl)cc2Cl)[nH]1 + N=C(N)NC(=N)NCCc1ccccc1 [Phenformin] (partner 250 µM)", "relative viability": 0.436}
{"compound": "O=c1[nH]c2ccccc2n1C1CCN(CCCC(c2ccc(F)cc2)c2ccc(F)cc2)CC1 [Pimozide] + O=C(CCCCCCC(=O)Nc1ccccc1)NO [Vorinostat] (partner 1 µM)", "relative viability": 0.579}

Proceed to the following item.
Prompt: Recorded relative viability of O=c1[nH]c2ccccc2n1C1CCN(CCCC(c2ccc(F)cc2)c2ccc(F)cc2)CC1 [Pimozide] + CC(C)C[C@H](NC(=O)[C@H](Cc1ccccc1)NC(=O)c1cnccn1)B(O)O [Bortezomib] (partner 0.002 µM) , please.
Completion: 0.898

* * *

Test system: NCI-H2126
method_summary: relative viability (nuclei count vs DMSO), 5 days (fraction); higher = more cells survive
measurement_parameters: first compound 0.8 µM
The threshold is 0.7. Values of relative viability beneath it are tagged yes; values meeting or exceeding it are tagged no.

Examples with answers:
{"compound": "O=c1[nH]c2ccccc2n1C1CCN(CCCC(c2ccc(F)cc2)c2ccc(F)cc2)CC1 [Pimozide] + NC(=O)Nc1cc(-c2cccc(F)c2)sc1C(=O)N[C@H]1CCCNC1 [AZD7762] (partner 0.2 µM)", "system": "NCI-H2126", "answer_label": "no"}
{"compound": "O=c1[nH]c2ccccc2n1C1CCN(CCCC(c2ccc(F)cc2)c2ccc(F)cc2)CC1 [Pimozide] + N=C(N)NC(=N)NCCc1ccccc1 [Phenformin] (partner 250 µM)", "system": "NCI-H2126", "answer_label": "yes"}
{"compound": "Cc1cnc(-c2cnc(NCCNc3ccc(C#N)cn3)nc2-c2ccc(Cl)cc2Cl)[nH]1 + C[C@]1(O)C[C@@H](c2nc(-c3ccc4ccc(-c5ccccc5)nc4c3)c3c(N)nccn32)C1 [Linsitinib] (partner 1 µM)", "system": "NCI-H2126", "answer_label": "no"}

Prompt: Please let me know if Cc1cnc(-c2cnc(NCCNc3ccc(C#N)cn3)nc2-c2ccc(Cl)cc2Cl)[nH]1 + COc1cc2c(Oc3ccc(NC(=O)C4(C(=O)Nc5ccc(F)cc5)CC4)cc3F)ccnc2cc1OCCCN1CCOCC1 [Foretinib] (partner 0.25 µM) shows relative viability below 0.7.
Completion: no

* * *

Tested on: EMC-BAC-2
method_summary: relative viability (nuclei count vs DMSO), 5 days (fraction); higher = more cells survive
measurement_parameters: first compound 0.05 µM
The threshold is 0.8. Values of relative viability beneath it are tagged Yes; values meeting or exceeding it are tagged No.

{"molecule": "Nc1ccn([C@@H]2O[C@H](CO)[C@@H](O)[C@@H]2O)c(=O)n1 [Cytarabine] + Nc1ncn([C@H]2C[C@H](O)[C@@H](CO)O2)c(=O)n1 [Decitabine] (partner 2 µM)", "answer_label": "Yes"}
{"molecule": "Nc1ccn([C@@H]2O[C@H](CO)[C@@H](O)[C@@H]2O)c(=O)n1 [Cytarabine] + CS(=O)(=O)CCNCc1ccc(-c2ccc3ncnc(Nc4ccc(OCc5cccc(F)c5)c(Cl)c4)c3c2)o1 [Lapatinib] (partner 2 µM)", "answer_label": "Yes"}
{"molecule": "COc1cc2nccc(Oc3ccc(NC(=O)Nc4cc(C)on4)c(Cl)c3)c2cc1OC [Tivozanib] + CS(=O)(=O)N1CCN(Cc2cc3nc(-c4cccc5[nH]ncc45)nc(N4CCOCC4)c3s2)CC1 [Pictilisib] (partner 1 µM)", "answer_label": "Yes"}

Prompt: Please let me know if COc1cc2nccc(Oc3ccc(NC(=O)Nc4cc(C)on4)c(Cl)c3)c2cc1OC [Tivozanib] + CS(=O)(=O)CCNCc1ccc(-c2ccc3ncnc(Nc4ccc(OCc5cccc(F)c5)c(Cl)c4)c3c2)o1 [Lapatinib] (partner 2 µM) shows relative viability below 0.8.
Completion: No

* * *

Here, each record is paired with measured relative viability data.
Tested on: NCI-H2347
method_summary: relative viability (nuclei count vs DMSO), 5 days (fraction); higher = more cells survive
measurement_parameters: first compound 5 µM
Could you respond with only the numeric value?

Prompt: Recorded relative viability of O=C(O)CCCCC(CCSCc1ccccc1)SCc1ccccc1 (stereo not given) [CPI-613] + N=C(N)NC(=N)NCCc1ccccc1 [Phenformin] (partner 250 µM) , please.
Completion: 0.441

Prompt: Note, next up: O=C(O)CCCCC(CCSCc1ccccc1)SCc1ccccc1 (stereo not given) [CPI-613] + O=C(CCCCCCC(=O)Nc1ccccc1)NO [Vorinostat] (partner 1 µM)
Completion: 0.513

* * *

Test system: NCI-H1703
method_summary: relative viability (nuclei count vs DMSO), 5 days (fraction); higher = more cells survive
measurement_parameters: first compound 8 µM
parameter: relative viability

Previously resolved entries follow.
{"compound": "O=c1[nH]c2ccccc2n1C1CCN(CCCC(c2ccc(F)cc2)c2ccc(F)cc2)CC1 [Pimozide] + O=C(c1cc(Cc2n[nH]c(=O)c3ccccc23)ccc1F)N1CCN(C(=O)C2CC2)CC1 [Olaparib] (partner 8 µM)", "relative viability": 0.341}
{"compound": "O=c1[nH]c2ccccc2n1C1CCN(CCCC(c2ccc(F)cc2)c2ccc(F)cc2)CC1 [Pimozide] + CS(=O)(=O)N1CCN(Cc2cc3nc(-c4cccc5[nH]ncc45)nc(N4CCOCC4)c3s2)CC1 [Pictilisib] (partner 1 µM)", "relative viability": 0.246}
{"compound": "O=c1[nH]c2ccccc2n1C1CCN(CCCC(c2ccc(F)cc2)c2ccc(F)cc2)CC1 [Pimozide] + C[C@]1(O)C[C@@H](c2nc(-c3ccc4ccc(-c5ccccc5)nc4c3)c3c(N)nccn32)C1 [Linsitinib] (partner 1 µM)", "relative viability": 0.553}

Proceed to the following item.
Prompt: Recorded relative viability of O=c1[nH]c2ccccc2n1C1CCN(CCCC(c2ccc(F)cc2)c2ccc(F)cc2)CC1 [Pimozide] + COc1cc2c(Oc3ccc(NC(=O)C4(C(=O)Nc5ccc(F)cc5)CC4)cc3F)ccnc2cc1OCCCN1CCOCC1 [Foretinib] (partner 0.25 µM) , please.
Completion: 0.336

* * *

Tested on: NCI-H1650
method_summary: relative viability (nuclei count vs DMSO), 5 days (fraction); higher = more cells survive
measurement_parameters: first compound 5 µM
Here, each record is paired with measured relative viability data.
Could you respond with only the numeric value?

Previously resolved entries follow.
{"compound": "O=C(O)CCCCC(CCSCc1ccccc1)SCc1ccccc1 (centres undefined) [CPI-613] + COc1cccc2cc(-c3nc([C@H]4CC[C@H](C(=O)O)CC4)n4ncnc(N)c34)[nH]c12 [OSI-027] (partner 0.5 µM)", "parameter": "relative viability", "recorded_value": 0.592}
{"compound": "O=C(O)CCCCC(CCSCc1ccccc1)SCc1ccccc1 (centres undefined) [CPI-613] + Cc1cc(Nc2cc(N3CCN(C)CC3)nc(Sc3ccc(NC(=O)C4CC4)cc3)n2)n[nH]1 [Tozasertib] (partner 0.1 µM)", "parameter": "relative viability", "recorded_value": 0.441}
{"compound": "O=C(O)CCCCC(CCSCc1ccccc1)SCc1ccccc1 (centres undefined) [CPI-613] + CS(=O)(=O)CCNCc1ccc(-c2ccc3ncnc(Nc4ccc(OCc5cccc(F)c5)c(Cl)c4)c3c2)o1 [Lapatinib] (partner 2 µM)", "parameter": "relative viability", "recorded_value": 0.584}

Proceed to the following item.
Prompt: Recorded relative viability of O=C(O)CCCCC(CCSCc1ccccc1)SCc1ccccc1 (centres undefined) [CPI-613] + CC(=O)c1c(C)c2cnc(Nc3ccc(N4CCNCC4)cn3)nc2n(C2CCCC2)c1=O [Palbociclib] (partner 0.5 µM) , please.
Completion: 0.326
